Assay: Fraction unbound in human plasma
Assay type: ADME, cell-free
measuredQuantity: fraction unbound
Numbers only.

Inquiry: If you can, please state the reported fraction unbound value of C[C@@](N)(CCc1ccc(-c2nc3ccc(C4(c5ccccc5)CC4)nc3s2)c(F)c1)C(=O)O .
Reply text: 0.037

* * *

Target: Sphingosine 1-phosphate receptor 1 (Homo sapiens, UniProt P21453)
Sequence (P21453 whole entry): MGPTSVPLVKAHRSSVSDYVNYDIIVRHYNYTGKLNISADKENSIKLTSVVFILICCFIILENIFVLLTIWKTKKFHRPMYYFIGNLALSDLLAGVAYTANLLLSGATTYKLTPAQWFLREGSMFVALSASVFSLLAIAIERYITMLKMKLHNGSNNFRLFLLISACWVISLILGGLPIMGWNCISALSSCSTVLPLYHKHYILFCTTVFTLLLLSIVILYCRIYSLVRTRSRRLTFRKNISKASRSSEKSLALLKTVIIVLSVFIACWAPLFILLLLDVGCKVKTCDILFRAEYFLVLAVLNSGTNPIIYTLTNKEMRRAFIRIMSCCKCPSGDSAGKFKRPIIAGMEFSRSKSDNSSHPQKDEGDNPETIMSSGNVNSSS
Experiment: Agonist activity at eGFP-tagged human S1P1 receptor expressed in U2OS cells assessed as receptor internalization after 1 hr by Hoechst dye-based microscopic analysis relative to 1 uM 1-(4-(6-benzylbenzofuran-2-yl)-3-fluorobenzyl)azetidine-3-carboxylic acid
Type: functional, cell-based
Please provide measured Efficacy for the entries that follow.
Answers are plain numbers, in %.

Return reported Efficacy values for all items listed beneath this line.
1. C[C@](N)(CCc1ccc(-c2nc3ccc(C4(c5ccccc5)CC4)nc3s2)c(F)c1)C(=O)O
2. O=C(O)CCNc1ccc(-c2nc3ccc(C4(c5ccccc5)CC4)nc3s2)c(F)c1
3. O=C(O)CCC(=O)Nc1ccc(-c2nc3ccc(C4(c5ccccc5)CC4)nc3s2)c(F)c1
4. O=C(O)CCCCc1ccc(-c2nc3ccc(C4(c5ccccc5)CC4)nc3s2)c(F)c1
5. O=C(O)CCNCc1ccc(-c2nc3ccc(C4(c5ccccc5)CC4)nc3s2)c(F)c1
6. NCCCc1ccc(-c2nc3ccc(C4(c5ccccc5)CC4)nc3s2)c(F)c1
7. O=C(O)CCCNCc1ccc(-c2nc3ccc(C4(c5ccccc5)CC4)nc3s2)c(F)c1
8. Nc1ccc(-c2nc3ccc(C4(c5ccccc5)CC4)nc3s2)c(F)c1

Reply text:
1. 93
2. 94
3. 80
4. 103
5. 96
6. 121
7. 128
8. 92

Inquiry: If you can, please state the reported Efficacy value of C[C@@](N)(CCc1ccc(-c2nc3ccc(C4(c5ccccc5)CC4)nc3s2)c(F)c1)C(=O)O .
Reply text: 114
